assay: Biodistribution of 153Sm complexes in rats (% injected dose per organ, NaI scintillation counting after tail vein injection); type: in vivo, Sprague Dawley rats; settings: ratio of average % injected dose, 2 hours post injection
Measurement Kind: Ratio Bone/Muscle
Answers are plain numbers.

Worked cases, answers included:
CCOP(=O)([O-])CN1Cc2cccc(n2)CN(CP(=O)([O-])OCC)Cc2cccc(n2)C1.[153Sm+3]
33
O=C([O-])CN1Cc2cccc(n2)CN(CC(=O)[O-])Cc2cccc(n2)C1.[153Sm+3]
35
O=P([O-])([O-])CN1Cc2cccc(n2)CN(CP(=O)([O-])[O-])Cc2cccc(n2)C1.[153Sm+3]
39

Now consider the entry below.
Asked: Recorded Ratio Bone/Muscle for O=C([O-])CN1Cc2cccc(n2)CN(CC(=O)[O-])Cc2cccc(n2)CN(CC(=O)[O-])Cc2cccc(n2)C1.[153Sm+3] , please?
Given back: 2
